Here, each record is paired with measured melting point data.

[
  {
    "molecule": "CCc1nc(Cl)c(Oc2cc(OC)ccc2Cl)c(Cl)n1",
    "melting point": "113 to 114 °C"
  },
  {
    "molecule": "COc1cc2c(cc1-c1cccnc1)-c1c(-c3cncs3)c3c(n1CC2)C(=O)N(C(C)(C)C)CCCOC3",
    "melting point": "200 to 201 °C"
  }
]

Which melting point value belongs to Cc1ccc(NC(=O)c2ccc(C(=O)Nc3ccccc3NC(=O)OC(C)(C)C)nc2)cc1Nc1nc(-c2cccnc2)cs1 ?
222 to 224 °C

melting point for CCOC(=O)C1(C(=O)OCC)CCc2cc3c(cc2C1c1cc(OC)c(O)c(OC)c1)OCO3 (centres undefined) ?
147 to 148 °C

# get_value(readout='melting point', item= Cc1[nH]c(-c2ccccc2)nc1C(=O)C=CN(C)C )
218 to 222 °C

What value of melting point has been recorded for this entry: CC1NCc2ccsc2C1c1ccccc1 (centres undefined)
78 °C

So what's the measured melting point for this one? COCC(=O)Nc1c(C(O)(C(F)(F)F)C(F)(F)F)ccc2ccccc12
120 to 121 °C

Reported melting point for Cc1nc2ccc(C(=O)NS(=O)(=O)c3ccccc3)nc2n1Cc1ccc(C(=O)O)cc1Cl : what is it?
155 to 160 °C

Given COC(=O)N1CCC(=C2c3ccccc3CCc3cccnc32)CC1 , state its recorded melting point.
116 to 118 °C

====

Reported melting point values are given for each entry in this list.

Below, each entry is followed by its recorded melting point result.
[
  {
    "compound": "Cc1ccc(S(=O)(=O)NCC(CC(C)C)NS(=O)(=O)c2ccc(C)cc2)cc1 (centres undefined)",
    "melting point": "138 to 140 °C"
  },
  {
    "compound": "OCc1ccc(-c2nn(Cc3ccccc3)c3ccccc23)cc1",
    "melting point": "110 to 112 °C"
  },
  {
    "compound": "O=C(NCc1ccccn1)Nc1cc(N2CC(c3ccccc3F)CC2=O)ccn1 (centres undefined)",
    "melting point": "173 to 174 °C"
  },
  {
    "compound": "Cc1nc(NC(=O)c2ccccc2)sc1C(=O)NCc1ccccc1F",
    "melting point": "180 to 183 °C"
  }
]

Using the record for O=C1Nc2cc(CN3CC=C(c4ccc(Cl)cc4)CC3)cnc2N2CCCCC12 (centres undefined) , report its melting point.
202 °C

Query (compound): COc1cc2ncnc(Nc3cc(Cl)c(O)c(Cl)c3)c2cc1OC ; field requested: melting point
293 to 295 °C

What value of melting point has been recorded for this entry: Cc1ccn(-c2ccc(C(=O)c3cccc4c3Nc3ncccc3CN4)c(F)c2)n1
122 to 125 °C

Which melting point value is on record for CC(C)Cc1cnc(N)c([N+](=O)[O-])c1 ?
147 to 149 °C

melting point for C=Cc1c(C)c2cc3nc(c4c5[nH]c(cc6nc(cc1[nH]2)C(C)=C6CC)c(C)c5C(=O)C4)C(CCC(=O)OC)C3C (centres undefined) ?
217 to 219 °C

====

assayReadout: melting point

For orientation, consider the following solved cases.
[
  {
    "compound": "O=C(c1c(O)c2ccccc2c2nc3ccccc3nc12)N1CCOCC1",
    "melting point": "223 to 225 °C"
  },
  {
    "compound": "CC(C)c1c(Cl)nc(OCc2ccccc2)nc1OCc1ccccc1",
    "melting point": "77 to 78 °C"
  },
  {
    "compound": "ClCCCn1cc2cc(OCc3ccccc3)ccc2n1",
    "melting point": "97 to 98 °C"
  },
  {
    "compound": "Cc1ccc(S(=O)(=O)NC(=O)NCCCCCCNC(=O)NS(=O)(=O)c2ccc(C)o2)o1",
    "melting point": "115 to 116 °C"
  },
  {
    "compound": "C=CCc1cc2c(cc1O)C(C)(C)C(CCO)O2 (stereo not given)",
    "melting point": "55 to 58 °C"
  },
  {
    "compound": "COc1ccc(-n2c(=O)n(OCc3ccccc3)c(=O)c3cc(F)c(Cl)nc32)cc1",
    "melting point": "238 to 240 °C"
  },
  {
    "compound": "OCCC(c1ccccc1)(c1ccccc1)c1ccccc1",
    "melting point": "103 to 106 °C"
  },
  {
    "compound": "CC(C)NCC(O)COc1ccccc1C1=NNC(=O)CC1 (stereo not given)",
    "melting point": "124 to 126 °C"
  }
]

Return reported melting point; argument: N#Cc1c[nH]cc1-c1ccc(Cl)cc1C(=O)c1ccccc1
175 to 177 °C

What value of melting point has been recorded for this entry: CC(C)(C)OC(=O)c1ccc(N2CC(CN=[N+]=[N-])OC2=O)cc1F (stereo not given)
91 to 92 °C
